target: ERK2 (Homo sapiens, UniProt P28482); construct: purchased Jubilant Biosys; assay: ERK2 HTRF (biochemical) assay; conditions: HTRF
Sequence (P28482 whole entry): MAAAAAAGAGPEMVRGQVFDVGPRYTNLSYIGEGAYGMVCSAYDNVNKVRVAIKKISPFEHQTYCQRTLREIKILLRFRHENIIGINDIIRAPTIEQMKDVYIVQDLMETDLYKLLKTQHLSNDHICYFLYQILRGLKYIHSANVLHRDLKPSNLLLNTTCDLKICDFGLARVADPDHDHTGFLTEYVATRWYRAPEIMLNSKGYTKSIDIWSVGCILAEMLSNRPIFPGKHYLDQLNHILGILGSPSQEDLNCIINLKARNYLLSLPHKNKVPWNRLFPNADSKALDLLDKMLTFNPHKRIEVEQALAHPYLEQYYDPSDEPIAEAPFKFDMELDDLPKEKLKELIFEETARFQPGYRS
pIC50: −log10 of the molar value.
READOUT TYPE: pIC50

| COMPOUND | TEST TARGET | pIC50 |
| --- | --- | --- |
| Cc1cnc(NC2CCOCC2)nc1-n1cnc(C(=O)N[C@H](CN)c2cccc(Cl)c2)c1 (single isomer, unassigned) [Compound 225a] | ERK2 (Homo sapiens, UniProt P28482) | ≥ 7.30 |
| COc1cc(F)ccc1Nc1ncc(C)c(-n2ccc(C(=O)NC(CO)c3cccc(Cl)c3)c2)n1 (stereo not shown) | ERK2 (Homo sapiens, UniProt P28482) | ≥ 7.30 |
| Cc1cnc(NC2CCOCC2)nc1-n1cnc(C(=O)N[C@@H](CN)c2cccc(Cl)c2)c1 (single isomer, unassigned) [Compound 225b] | ERK2 (Homo sapiens, UniProt P28482) | ≥ 7.30 |
| Cc1cnc(Nc2ccc(F)cc2Cl)nc1-n1cc(NC(=O)N[C@@H](CO)c2cccc(Cl)c2)cn1 | ERK2 (Homo sapiens, UniProt P28482) | 6.30 to 7.00 |
| Cc1cnc(NC2CC(F)(F)C2)nc1-n1cnc(C(=O)N[C@@H](CN)c2cc(F)cc(Cl)c2)c1 | ERK2 (Homo sapiens, UniProt P28482) | 7.00 to 7.30 |

Kindly give each listed record's pIC50.
1. COc1cc(Nc2ncc(C)c(-n3ccc(C(=O)NC(CO)c4ccccc4)c3)n2)cc(OC)c1OC (stereo not shown)
2. Cc1cnc(Nc2ccc3c(c2)OC(C)(C)O3)nc1-n1ccc(C(=O)NC(CO)c2ccccc2)c1 (stereo not shown)

Response line:
≥ 7.30
≥ 7.30

----------
molecular target: ERK1 (Homo sapiens, UniProt P27361); construct: purchased Jubilant Biosys; test: ERK1 HTRF (biochemical) assay; settings: HTRF
Sequence (P27361 whole entry): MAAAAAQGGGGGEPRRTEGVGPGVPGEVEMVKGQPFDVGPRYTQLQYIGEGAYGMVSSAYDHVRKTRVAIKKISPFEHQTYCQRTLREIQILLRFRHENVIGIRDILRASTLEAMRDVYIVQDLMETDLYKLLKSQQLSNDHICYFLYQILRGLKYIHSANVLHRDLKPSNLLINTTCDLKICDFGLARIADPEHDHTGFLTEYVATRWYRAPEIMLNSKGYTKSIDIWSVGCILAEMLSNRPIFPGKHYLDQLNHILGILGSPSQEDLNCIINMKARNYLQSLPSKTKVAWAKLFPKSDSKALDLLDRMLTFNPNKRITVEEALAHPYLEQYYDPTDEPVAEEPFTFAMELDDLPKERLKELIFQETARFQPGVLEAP
pIC50: −log10 of the molar value.
Please go through the items and note down their pIC50.

Worked set:
| COMPOUND | READOUT VALUE |
| --- | --- |
| Cc1cnc(Nc2ccc(F)cc2Cl)nc1-n1ccc(C(=O)N[C@H](CO)c2cccc(Cl)c2)c1 [Compound 29] | > 7.30 |
| Cc1cnc(NC2CCOCC2)nc1-n1cnc(C(=O)N[C@H](CN)c2cccc(Cl)c2)c1 (single isomer, unassigned) [Compound 225a] | > 7.30 |
| O=C(Nc1cnn(-c2ccnc(Nc3ccccc3Cl)n2)c1)N[C@H](CO)c1ccccc1 | 7.00 to 7.30 |

Hello, I would appreciate it if you could give pIC50 for each entry below.
1. Cc1cnc(Nc2ccc3c(c2)OCO3)nc1-n1ccc(C(=O)N[C@H](CO)c2ccccc2)c1
2. Cc1cnc(Nc2ccc(F)c(C(=O)N(C)C)c2)nc1-n1ccc(C(=O)NC(CO)c2cccc(Cl)c2)c1 (stereo not shown)
3. Cc1cnc(Nc2ccc(F)cc2)cc1-n1cnc(C(=O)NC(CN)c2ccccc2)c1 (single isomer, unassigned) [Compound 227]

Response line:
> 7.30
> 7.30
> 7.30

----------
Molecular target: ERK2 (Homo sapiens, UniProt P28482)
Construct: purchased Jubilant Biosys
Experiment: ERK2 HTRF (biochemical) assay
Conditions: HTRF
From the text: ERK1 and ERK2 HTRF (Biochemical) Assays These assays employed a homogeneous time resolved fluorescence (HTRF) technique. […] Plate was read using Pherastar in HTRF mode (excitation 337 nm, emission 665 & 620 nm). The IC50 values (half maximal inhibitory concentration values) were subsequently determined using a sigmoidal dose-response curve (variable slope) in GraphPad Prism® 5 software.
READOUT TYPE: IC50

| COMPOUND | READOUT TYPE | READOUT VALUE |
| --- | --- | --- |
| Cc1cnc(NC2CCS(=O)(=O)C2)nc1-n1cnc(C(=O)N[C@H](CO)c2cccc(Cl)c2)c1 (some centres unmarked) | IC50 | ≤ 50 nM |
| Cc1cnc(NC2CC2)nc1-n1cc(C(=O)N[C@H](CO)c2cccc(Cl)c2)cn1 | IC50 | ≤ 50 nM |
| O=C(NC(CO)c1cccc(Cl)c1)c1cnn(-c2ccnc(Nc3ccccc3)n2)c1 (centres unmarked) | IC50 | 100 to 500 nM |
| CC[C@@H](CO)Nc1ncc(C)c(-n2ccc(C(=O)N[C@H](CO)c3cccc(Cl)c3)c2)n1 | IC50 | ≤ 50 nM |
| CC[C@H](CO)Nc1cc(-n2cnc(C(=O)NC(CO)c3cccc(Cl)c3)c2)c(Cl)cn1 (some centres unmarked) | IC50 | 50 to 100 nM |
| Cc1cnc(Nc2ccc(F)cc2Cl)nc1-n1ccc(C(=O)N[C@H](CO)c2cccc(Cl)c2)c1 [Compound 57] | IC50 | ≤ 50 nM |
| Cc1cnc(Nc2ccccc2Cl)nc1-n1cc(NC(=O)N[C@H](CO)c2cccc(Cl)c2)cn1 | IC50 | 50 to 100 nM |

Now examine the next entry.
Prompt line: Recorded IC50 of Cc1cnc(Nc2ccc3c(c2)OCO3)nc1-n1ccc(C(=O)N[C@H](CO)c2ccccc2)c1 , please.
Response line: ≤ 50 nM

----------
molecular target: ERK2 (Homo sapiens); construct: purchased Jubilant Biosys; test: ERK2 HTRF (biochemical) assay; settings: HTRF
READOUT TYPE: IC50

For orientation, consider the following solved cases.
| COMPOUND | TEST TARGET | IC50 |
| --- | --- | --- |
| CNC(=O)c1ccc(Nc2ncc(C)c(-n3ccc(C(=O)NC(CO)c4cccc(Cl)c4)c3)n2)cc1 (stereo not shown) | ERK2 (Homo sapiens) | ≤ 50 nM |
| Cc1cnc(Nc2ccc(Oc3ccccc3)cc2)nc1-n1cnc(C(=O)NC(CN)c2cccc(Cl)c2)c1 (stereo not shown) | ERK2 (Homo sapiens) | ≤ 50 nM |

// each listed compound needs a value for IC50
1. Cc1cnc(NC2CCC(F)(F)CC2)nc1-n1cnc(C(=O)N[C@H](CN)c2cccc(Cl)c2)c1
2. CC[C@@H](CO)Nc1ncc(C)c(-n2ccc(C(=O)N[C@@H](CO)c3cccc(Cl)c3)c2)n1

Response line:
≤ 50 nM
500 to 2500 nM

----------
molecular target: ERK2 (Homo sapiens); construct: purchased Jubilant Biosys; assay: ERK2 HTRF (biochemical) assay; conditions: HTRF
Please go through the items and note down their IC50.

As a guide, the following entries are already answered.
| COMPOUND | IC50 |
| --- | --- |
| Cc1cnc(Nc2ccc(F)cc2)nc1-n1ccc(C(=O)NC(CO)c2cccc(Cl)c2)c1 (stereo not shown) [Compound 113] | ≤ 50 nM |
| Cc1cnc(NC2CCOCC2)nc1-n1cnc(C(=O)NCc2ccccc2CCO)c1 [Compound 243] | ≤ 50 nM |
| Cc1cnc(Nc2cc3c(cc2Cl)OCO3)nc1-n1ccc(C(=O)NC(CO)c2cccc(Cl)c2)c1 (stereo not shown) [Compound 101] | ≤ 50 nM |

# return IC50 for each item in the list
1. CC[C@H](CO)Nc1ncc(C)c(-n2ccc(C(=O)NC(CO)c3cccc(Cl)c3)c2)n1 (stereo partly shown) [Compound 167]
2. Cc1cnc(NC2CCOc3ccccc32)nc1-n1cnc(C(=O)N[C@H](CO)c2cccc(Cl)c2)c1 (stereo partly shown) [Compound 247]
3. Cc1cnc(Nc2ccc(F)cc2Cl)nc1-n1ccc(C(=O)N[C@@H](CN(C)C)c2ccccc2)c1 [Compound 97]
4. CN1CCN(c2ccc(Nc3nccc(-n4cc(NC(=O)N[C@H](CO)c5cccc(Cl)c5)cn4)n3)cc2)CC1 [Compound 22]
5. Cc1cnc(NC2CCOC(C)C2)nc1-n1cnc(C(=O)N[C@H](CO)c2cccc(Cl)c2)c1 (stereo partly shown) [Compound 251]
6. O=C(NC(CO)c1ccccc1)c1ccn(-c2ccnc(Nc3ccccc3)c2)c1 (stereo not shown) [Compound 71]

Response line:
1: ≤ 50 nM; 2: ≤ 50 nM; 3: 100 to 500 nM; 4: 50 to 100 nM; 5: ≤ 50 nM; 6: ≤ 50 nM

Below are 2 compounds. Give each one its IC50.
1. Cc1cnc(NC2CCCN(C)C2)nc1-n1ccc(C(=O)NC(CO)c2cccc(Cl)c2)c1 (stereo not shown) [Compound 199]
2. Cc1cnc(NC2CCCCC2)nc1-n1ccc(C(=O)NC(CO)c2cccc(Cl)c2)c1 (stereo not shown) [Compound 195]

Response line:
["≤ 50 nM", "≤ 50 nM"]

----------
target: ERK1 (Homo sapiens, UniProt P27361); construct: purchased Jubilant Biosys; test: ERK1 HTRF (biochemical) assay; conditions: HTRF
READOUT TYPE: IC50

Below: 10 molecules and their reported IC50.
| MOLECULE | IC50 |
| --- | --- |
| Cc1cnc(Nc2cccc3c2OC(F)(F)O3)nc1-n1ccc(C(=O)NC(CO)c2cccc(Cl)c2)c1 (centres unmarked) | < 50 nM |
| O=C(N[C@H](CO)c1cccc(Cl)c1)c1cn(-c2ccnc(NC3CCOC3)c2)cn1 (some centres unmarked) | < 50 nM |
| Cc1cnc(Nc2ccc(F)cc2Cl)cc1-n1ccc(C(=O)NC(CO)c2cccc(Cl)c2)c1 (centres unmarked) | < 50 nM |
| Cc1cnc(Nc2ccc3c(c2)OCCO3)nc1-n1ccc(C(=O)NC(CO)c2ccccc2)c1 (centres unmarked) | < 50 nM |
| Cc1cnc(NC2CCOC2)nc1-n1ccc(C(=O)N[C@H](CO)c2ccc(F)c(Cl)c2)c1 (some centres unmarked) | < 50 nM |
| Cc1cnc(Nc2ccc(F)cc2)cc1-n1ccc(C(=O)NC(CN)c2ccc(F)c(Cl)c2)c1 (centres unmarked) | < 50 nM |
| CC(C)C[C@H](CO)Nc1nccc(-n2cc(NC(=O)N[C@H](CO)c3cccc(Cl)c3)cn2)n1 | 100 to 500 nM |
| Cc1cnc(NC2CCN(C)CC2)nc1-n1cnc(C(=O)N[C@H](CO)c2cccc(Cl)c2)c1 | < 50 nM |
| Cc1cnc(Nc2ccc3c(c2)OCC3)nc1-n1ccc(C(=O)NC(CO)c2ccccc2)c1 (centres unmarked) | < 50 nM |
| Cc1cn(-c2ccnc(Nc3ccc(F)cc3)n2)cc1C(=O)NC(CO)c1cccc(Cl)c1 (centres unmarked) | 50 to 100 nM |

Would you be so kind as to report IC50 for each listed record?
1. Cc1cnc(NC(CO)CO)nc1-n1ccc(C(=O)NC(CO)c2ccccc2)c1 (centres unmarked)
2. Cc1cnc(Nc2ccc3c(c2)OCCC3)nc1-n1ccc(C(=O)NC(CO)c2ccccc2)c1 (centres unmarked)
3. Cc1cnc(NC2CCOCC2)nc1-n1cnc(C(=O)NCc2cccc(Cl)c2CN)c1

Response line:
1: 50 to 100 nM; 2: < 50 nM; 3: < 50 nM
